Test: Rat pharmacokinetics (IV and PO)
Format: in vivo, male Sprague-Dawley rats
Conditions: male, Sprague-Dawley, plasma, IV infusion (1 hr), 2 mg/kg, HCl salt, read-out: Vdss
Let's look at some compounds and their measured Vd.
Just the number in L/kg, nothing appended.

C[C@@H]1CN(c2cnc(C(F)(F)F)cn2)C[C@H](C)N1C(=O)OCCC1CCN(Cc2ccccc2)CC1 = 12.1

For the next question, use this compound.
Item: C[C@@H]1CN(c2cnc(C(F)(F)F)cn2)C[C@@H](C)N1C(=O)OCCC1CCN(Cc2ccccc2)CC1 | Vd: 36

====

Test: Rat pharmacokinetics (IV and PO)
Assay type: in vivo, male Sprague-Dawley rats
Conditions: male, Sprague-Dawley, plasma, iv, 2 mg/kg, IV infusion (1 hr), 2 mg/kg, HCl salt, read-out: T½ (converted)
Let's look at some compounds and their measured half-life.
Just the number in h, nothing appended.

C[C@@H]1CN(c2cnc(C(F)(F)F)cn2)C[C@@H](C)N1C(=O)OCCC1CCN(Cc2ccccc2)CC1 = 11

For the next question, use this compound.
Item: C[C@@H]1CN(c2cnc(C(F)(F)F)cn2)C[C@H](C)N1C(=O)OCCC1CCN(Cc2ccccc2)CC1 | half-life: 10.2

====

Assay: Rat pharmacokinetics (IV and PO)
Assay type: in vivo, male Sprague-Dawley rats
Conditions: male, Sprague-Dawley, plasma, PO 10 mg/kg, 30% PG, 20% PEG-400, 0.5% MC in water (solution)
assay-metric: bioavailability (%)
Just the number in %, nothing appended.

Item: C[C@@H]1CN(c2ncc(C#N)cn2)C[C@H](C)N1C(=O)NCCC1CCN(Cc2ccccc2)CC1 [Compound 3A] | bioavailability: 43.7

====

Let's look at some compounds and their measured AUC(0-t).
Assay: Rat pharmacokinetics (IV and PO)
Assay type: in vivo, male Sprague-Dawley rats
Conditions: male, Sprague-Dawley, plasma, iv, 2 mg/kg, IV infusion (1 hr), HCl salt
Just the number in ng·h/mL, nothing appended.

C[C@@H]1CN(c2cnc(C(F)(F)F)cn2)C[C@H](C)N1C(=O)OCCC1CCN(Cc2ccccc2)CC1 = 1780

For the next question, use this compound.
Item: C[C@@H]1CN(c2cnc(C(F)(F)F)cn2)C[C@@H](C)N1C(=O)OCCC1CCN(Cc2ccccc2)CC1 | AUC(0-t): 613

====

Assay: Rat pharmacokinetics (IV and PO)
Type: in vivo, male Sprague-Dawley rats
Conditions: male, Sprague-Dawley, plasma, po, 10 mg/kg, PO 10 mg/kg, 5% Tween-80 in 0.5% (w/v) MC in water (suspension)
Let's look at some compounds and their measured AUC(0-t).
Just the number in ng·h/mL, nothing appended.

C[C@@H]1CN(c2cnc(C(F)(F)F)cn2)C[C@@H](C)N1C(=O)NCCC1CCN(Cc2ccccc2)CC1 [Compound 4A] = 2530

For the next question, use this compound.
Item: C[C@@H]1CN(c2ncc(C#N)cn2)C[C@H](C)N1C(=O)NCCC1CCN(Cc2ccccc2)CC1 [Compound 3A] | AUC(0-t): 1500

====

Let's look at some compounds and their measured Tmax.
Test: Rat pharmacokinetics (IV and PO)
Assay type: in vivo, male Sprague-Dawley rats
Settings: male, Sprague-Dawley, plasma, po, 10 mg/kg, PO 10 mg/kg, 5% Tween-80 in 0.5% (w/v) MC in water (suspension), read-out: Tmax range

C[C@@H]1CN(c2cnc(C(F)(F)F)cn2)C[C@@H](C)N1C(=O)NCCC1CCN(Cc2ccccc2)CC1 = 1 to 8 h

Item: C[C@@H]1CN(c2ncc(C#N)cn2)C[C@H](C)N1C(=O)NCCC1CCN(Cc2ccccc2)CC1 | Tmax: 0.5 to 4 h

====

Assay: Rat pharmacokinetics (IV and PO)
Format: in vivo, male Sprague-Dawley rats
Details: male, Sprague-Dawley, plasma, po, 10 mg/kg, PO 10 mg/kg, 30% PG, 20% PEG-400, 0.5% MC in water (solution)
assay-metric: AUC(0-inf) (ng·h/mL)
Just the number in ng·h/mL, nothing appended.

Item: C[C@@H]1CN(c2ncc(C#N)cn2)C[C@H](C)N1C(=O)NCCC1CCN(Cc2ccccc2)CC1 | AUC(0-inf): 1540

====

Test: Rat pharmacokinetics (IV and PO)
Assay type: in vivo, male Sprague-Dawley rats
Conditions: male, Sprague-Dawley, plasma, iv, 2.5 mg/kg, IV bolus, 2.5 mg/kg, HCl salt, read-out: T½ (converted)
Experimental: The pharmacokinetics of Compounds 1, 2, 3A, and 4A were assessed in male Sprague-Dawley rats following either intravenously (IV) or orally (PO) dosing. Sin-life portions of the studies were either conducted internally at Neurocrine Biosciences or contracted to Charles River Laboratories or Agilux Laboratories. […] For IV and PO dose groups, descriptive pharmacokinetics were derived and evaluated based on the plasma concentrations from each individual rat. […]
assay-metric: half-life (h)
Just the number in h, nothing appended.

Item: C[C@@H]1CN(c2ncc(C#N)cn2)C[C@H](C)N1C(=O)NCCC1CCN(Cc2ccccc2)CC1 | half-life: 1.95

====

Experiment: Rat pharmacokinetics (IV and PO)
Assay type: in vivo, male Sprague-Dawley rats
Conditions: male, Sprague-Dawley, plasma, po, 10 mg/kg, PO 10 mg/kg, 30% PG, 20% PEG-400, 0.5% MC in water (solution)
assay-metric: Cmax (µg/mL)
Just the number in µg/mL, nothing appended.

Item: C[C@@H]1CN(c2ncc(C#N)cn2)C[C@H](C)N1C(=O)NCCC1CCN(Cc2ccccc2)CC1 | Cmax: 0.247

====

Test: Rat pharmacokinetics (IV and PO)
Format: in vivo, male Sprague-Dawley rats
Details: male, Sprague-Dawley, plasma, IV bolus, 2.5 mg/kg, HCl salt
assay-metric: clearance (mL/min/kg)
Just the number in mL/min/kg, nothing appended.

Item: C[C@@H]1CN(c2ncc(C#N)cn2)C[C@H](C)N1C(=O)NCCC1CCN(Cc2ccccc2)CC1 | clearance: 47.5

====

Assay: Rat pharmacokinetics (IV and PO)
Type: in vivo, male Sprague-Dawley rats
Settings: male, Sprague-Dawley, plasma, po, 10 mg/kg, PO 10 mg/kg, 30% PG, 20% PEG-400, 0.5% MC in water (solution)
Method: The pharmacokinetics of Compounds 1, 2, 3A, and 4A were assessed in male Sprague-Dawley rats following either intravenously (IV) or orally (PO) dosing. Sin-life portions of the studies were either conducted internally at Neurocrine Biosciences or contracted to Charles River Laboratories or Agilux Laboratories. […] For IV and PO dose groups, descriptive pharmacokinetics were derived and evaluated based on the plasma concentrations from each individual rat. […]
assay-metric: AUC(0-t) (ng·h/mL)
Just the number in ng·h/mL, nothing appended.

Item: C[C@@H]1CN(c2ncc(C#N)cn2)C[C@H](C)N1C(=O)NCCC1CCN(Cc2ccccc2)CC1 [Compound 3A] | AUC(0-t): 1400

====

Let's look at some molecules and their measured Cmax.
Test: Rat pharmacokinetics (IV and PO)
Assay type: in vivo, male Sprague-Dawley rats
Conditions: male, Sprague-Dawley, plasma, po, 10 mg/kg, PO 10 mg/kg, 10% PEG-400 in 0.5% MC in water (solution)
For clarity, give the value followed by its unit.

C[C@@H]1CN(c2cnc(C(F)(F)F)cn2)C[C@@H](C)N1C(=O)NCCC1CCN(Cc2ccccc2)CC1 [Compound 4A] = 182 ng/mL
C[C@@H]1CN(c2cnc(C(F)(F)F)cn2)C[C@@H](C)N1C(=O)OCCC1CCN(Cc2ccccc2)CC1 [Compound 2] = 130 ng/mL

For the next question, use this molecule.
Item: C[C@@H]1CN(c2cnc(C(F)(F)F)cn2)C[C@H](C)N1C(=O)OCCC1CCN(Cc2ccccc2)CC1 [Compound 1] | Cmax: 264 ng/mL

====

Measured pKi (human M2 receptor (Homo sapiens))
Just so you know, pKi here is -log10 of the concentration in molar units; reply with that number alone.

Log: human M2 receptor (Homo sapiens), molecule C[C@@H]1CN(c2ncc(C#N)cn2)C[C@H](C)N1C(=O)NCCC1CCN(Cc2ccccc2)CC1 , pKi = 6.28

Log: human M2 receptor (Homo sapiens), molecule C[C@@H]1CN(c2cnc(C(F)(F)F)cn2)C[C@@H](C)N1C(=O)OCCC1CCN(Cc2ccccc2)CC1 , pKi = 6.57

Log: human M2 receptor (Homo sapiens), molecule C[C@@H]1CN(c2cnc(C(F)(F)F)cn2)C[C@@H](C)N1C(=O)NCCC1CCN(Cc2ccccc2)CC1 , pKi = 6.18

Log: human M2 receptor (Homo sapiens), molecule C[C@@H]1CN(c2cnc(C(F)(F)F)cn2)C[C@H](C)N1C(=O)OCCC1CCN(Cc2ccccc2)CC1 , pKi = 5.73

====

Experiment: Rat pharmacokinetics (IV and PO)
Assay type: in vivo, male Sprague-Dawley rats
Details: male, Sprague-Dawley, plasma, po, 10 mg/kg, PO 10 mg/kg, 1% Tween-80 in water (suspension)
assay-metric: AUC(0-t) (ng·h/mL)
Just the number in ng·h/mL, nothing appended.

Item: C[C@@H]1CN(c2cnc(C(F)(F)F)cn2)C[C@H](C)N1C(=O)OCCC1CCN(Cc2ccccc2)CC1 [Compound 1] | AUC(0-t): 3950

FYI, the data here is from patent US12486250B2.
